# maps each entry to its pKd
# study target: T1, ScoNrdR (Streptomyces coelicolor, UniProt O69980 1-182)
# T1 sequence: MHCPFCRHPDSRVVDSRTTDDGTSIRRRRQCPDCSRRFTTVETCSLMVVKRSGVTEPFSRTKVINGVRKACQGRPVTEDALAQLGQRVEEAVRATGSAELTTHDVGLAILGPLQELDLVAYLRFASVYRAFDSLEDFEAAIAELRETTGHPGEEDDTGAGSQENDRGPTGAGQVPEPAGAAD
# assay procedure: MST; dATP + ATP; MST, temperature not stated. Lmo: 25 mM Bis-Tris propane pH 6.5, 100 mM KCl, 5 mM MgCl2, 5% glycerol, 1 mM DTT, 0.05% Tween 20, one nucleotide 1 mM or two at 0.5 mM each; Spn: 25 mM HEPES pH 7.2, 250 mM NaCl, 2.5 mM MgCl2, 15% glycerol, 2 mM DTT, 0.1 mg/mL BSA, 0.05% Tween 20, 0.5 mM ATP and/or dATP; Eco: 25 mM Tris pH 8.5, 100 mM NaCl, 7 mM MgCl2, 1 mM DTT, 0.025% Tween 20, 1 mM ATP + 1 mM dATP; …
# experimental context: protein: recombinant; chain copies: 4; label: 5'-Cy5 sense; blunt
Please keep in mind that pKd is minus log10 of the molar concentration; only the number is needed.

Here's what some known entries look like.
{"binder": "Synt 13 bp spacer (dsDNA) DNA 1: GCCAAACACAACATCTAGTGGTTGGATAGTGAGCACACAACATCTAGTGGACCTC DNA 2: GAGGTCCACTAGATGTTGTGTGCTCACTATCCAACCACTAGATGTTGTGTTTGGC", "pKd": 6.80}
{"binder": "Synt 24 bp spacer (dsDNA) DNA 1: GCCAAACACAACATCTAGTGGTTGGATAGCGTGAATTCACCTAGCACACAACATCTAGTGGACCTC DNA 2: GAGGTCCACTAGATGTTGTGTGCTAGGTGAATTCACGCTATCCAACCACTAGATGTTGTGTTTGGC", "pKd": 6.12}
{"binder": "Synt 25 bp spacer (dsDNA) DNA 1: GCCAAACACAACATCTAGTGGTTGGATAGCGTGAAGTTCACCTAGCACACAACATCTAGTGGACCTC DNA 2: GAGGTCCACTAGATGTTGTGTGCTAGGTGAACTTCACGCTATCCAACCACTAGATGTTGTGTTTGGC", "pKd": 5.39}
{"binder": "Synt 12 bp spacer (dsDNA) DNA 1: GCCAAACACAACATCTAGTGGTTGGATAGGAGCACACAACATCTAGTGGACCTC DNA 2: GAGGTCCACTAGATGTTGTGTGCTCCTATCCAACCACTAGATGTTGTGTTTGGC", "pKd": 6.24}
{"binder": "Synt 18 bp spacer (dsDNA) DNA 1: GCCAAACACAACATCTAGTGGTTGGATAGCGTGAAGTGCACACAACATCTAGTGGACCTC DNA 2: GAGGTCCACTAGATGTTGTGTGCACTTCACGCTATCCAACCACTAGATGTTGTGTTTGGC", "pKd": 6.32}

Value of measured pKd for the entry Synt 17 bp spacer (dsDNA) DNA 1: GCCAAACACAACATCTAGTGGTTGGATAGCGTGAAGGCACACAACATCTAGTGGACCTC DNA 2: GAGGTCCACTAGATGTTGTGTGCCTTCACGCTATCCAACCACTAGATGTTGTGTTTGGC : 7.68

Value of measured pKd for the entry Synt 26 bp spacer (dsDNA) DNA 1: GCCAAACACAACATCTAGTGGTTGGATAGCGTGAAGTTCCACCTAGCACACAACATCTAGTGGACCTC DNA 2: GAGGTCCACTAGATGTTGTGTGCTAGGTGGAACTTCACGCTATCCAACCACTAGATGTTGTGTTTGGC : 5.36

Value of measured pKd for the entry Synt 15 bp spacer (dsDNA) DNA 1: GCCAAACACAACATCTAGTGGTTGGATAGCGTGAGCACACAACATCTAGTGGACCTC DNA 2: GAGGTCCACTAGATGTTGTGTGCTCACGCTATCCAACCACTAGATGTTGTGTTTGGC : 7.35
